Source: ChEMBL document CHEMBL1961873

target or system: Mitogen-activated protein kinase 11 (Homo sapiens) (UniProt Q15759);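 also: values are mean percent inhibition of p38beta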
Sequence (Q15759 whole entry): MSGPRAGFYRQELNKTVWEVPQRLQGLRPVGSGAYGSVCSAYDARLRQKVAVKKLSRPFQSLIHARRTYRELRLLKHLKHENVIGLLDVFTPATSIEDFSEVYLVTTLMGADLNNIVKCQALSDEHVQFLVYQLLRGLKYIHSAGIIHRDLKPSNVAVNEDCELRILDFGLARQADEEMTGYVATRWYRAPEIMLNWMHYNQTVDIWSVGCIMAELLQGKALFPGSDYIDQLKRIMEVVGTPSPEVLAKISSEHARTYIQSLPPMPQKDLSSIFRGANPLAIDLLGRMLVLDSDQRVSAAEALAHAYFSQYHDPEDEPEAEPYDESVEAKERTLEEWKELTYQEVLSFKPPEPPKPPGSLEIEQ
applied conditions: at 1 µM
observed property: inhibition (%)

• Fc1cccc(COc2ccc(Nc3ncnc4cc(-c5ccc[nH]5)sc34)cc2Cl)c1 = -0.16
• CCn1c(-c2nonc2N)nc2cnc(Oc3cccc(NC(=O)c4ccc(OCCN5CCOCC5)cc4)c3)cc21 = 1.06
• CS(=O)(=O)CCNCc1nc(-c2ccc3ncnc(Nc4ccc(F)c(Cl)c4)c3c2)cs1 = 5.6
• COc1ccc(-c2coc3ncnc(N)c23)cc1 = 7.25
• Fc1cccc(COc2ccc(Nc3ncnc4sc(-c5cccs5)cc34)cc2Cl)c1 = -0.33
• Cc1nn(C)c2cc(N(C)c3ccnc(Nc4cccc(S(N)(=O)=O)c4)n3)ccc12 = 25.1
• CCn1c(-c2nonc2N)nc2c(C#CC(C)(C)O)nc(CN3CCCC3)cc21 = 0.28
• CS(=O)(=O)CCNCc1ccc(-c2ccc3ncnc(Nc4ccc(OCc5cccc(F)c5)c(C(F)(F)F)c4)c3c2)o1 = 8.93
• Nc1nc(-c2ccc3c(c2)C(=Cc2cc(Br)c(O)c(Br)c2)C(=O)N3)cs1 = 2.83
• CC(C)=Cc1cccc2c1/C(=N/Nc1ccc(S(N)(=O)=O)cc1)C(=O)N2 = 5.29
• NS(=O)(=O)c1cccc(-c2ccc3c(NC(=O)C4CC4)n[nH]c3c2)c1 = 5.3
• Cc1ccc(C(=O)NC2CCCCC2)cc1-c1ccc(C(=O)NCC2CC2)cc1 = 14.2
• COc1cc2ncn(-c3cc(OCc4ccccc4Cl)c(C(N)=O)s3)c2cc1OC = 4.07
• COc1ccc(-c2nn3ncccc3c2-c2ccnc(Nc3ccc(Cl)c(C(F)(F)F)c3)n2)cc1 = 16.8
• CN1CCC(C(=O)Nc2n[nH]c3nnc(-c4ccccc4)cc23)CC1 = 5.33
• CS(=O)(=O)Nc1ccc(N/C=C2\C(=O)Nc3ccccc32)cc1 = 3.42
• CCn1c(-c2nonc2N)nc2cncc(C(=O)N3CC[C@H](N)C3)c21 = 9.04
• Cc1cc(O)cc(C)c1/C=C/c1cncc(-c2nn[nH]n2)c1 = 3.01
• COc1cc2ncn(-c3cc(O[C@@H](C)c4ccccc4Cl)c(C(N)=O)s3)c2cc1OC = 2.35
• O=C1NC(=O)C(c2cccc(Cl)c2)=C1Nc1ccc(O)c(Cl)c1 = 4.99

* * *

target or system: Platelet-derived growth factor receptor beta (Homo sapiens);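 also: reported value is the mean percent inhibition of the kinase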
applied conditions: at 0.1 µM
observed property: inhibition (%)

* Cc1cc(O)cc(C)c1/C=C/c1cncc(-c2nn[nH]n2)c1 | 9.66
* COc1cc2ncn(-c3cc(OCc4ccccc4Cl)c(C(N)=O)s3)c2cc1OC | 41
* Nc1ncnc2occ(-c3ccc(NC(=O)Nc4cccc(C(F)(F)F)c4)cc3)c12 | 69.4
* CS(=O)(=O)CCNCc1ccc(-c2ccc3ncnc(Nc4ccc(OCc5cccc(F)c5)c(C(F)(F)F)c4)c3c2)o1 | -0.33
* COc1cc2ncn(-c3cc(O[C@@H](C)c4ccccc4Cl)c(C(N)=O)s3)c2cc1OC | 29.8

* * *

target or system: Serine/threonine-protein kinase PAK 1 (Homo sapiens) (UniProt Q13153);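 also: values are mean PAK1 inhibition from the GSK PKIS kinase inhibitor set screen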
Sequence (Q13153 whole entry): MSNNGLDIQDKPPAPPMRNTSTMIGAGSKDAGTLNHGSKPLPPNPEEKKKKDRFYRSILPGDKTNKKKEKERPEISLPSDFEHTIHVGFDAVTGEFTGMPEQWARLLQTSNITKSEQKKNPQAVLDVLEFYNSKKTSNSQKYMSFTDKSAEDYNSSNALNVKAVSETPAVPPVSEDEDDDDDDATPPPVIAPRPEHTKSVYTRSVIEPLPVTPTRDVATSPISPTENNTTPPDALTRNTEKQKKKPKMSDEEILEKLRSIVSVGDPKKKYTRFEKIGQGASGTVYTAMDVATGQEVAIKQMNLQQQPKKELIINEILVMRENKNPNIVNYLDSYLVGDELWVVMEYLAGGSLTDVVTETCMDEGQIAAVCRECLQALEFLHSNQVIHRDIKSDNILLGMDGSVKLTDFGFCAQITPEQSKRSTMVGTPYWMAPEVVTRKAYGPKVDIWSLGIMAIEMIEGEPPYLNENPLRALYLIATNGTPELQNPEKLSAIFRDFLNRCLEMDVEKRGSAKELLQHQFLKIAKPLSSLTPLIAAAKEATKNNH
applied conditions: at 0.1 µM
Rule: criterion met for inhibition not less than 4%, criterion not met for anything less.

- Cc1cc(O)cc(C)c1/C=C/c1cncc(-c2nn[nH]n2)c1: criterion met
- COc1ccccc1Nc1ncc(-c2ccccc2)o1: criterion met
- O=C1NC(=O)C(c2cccc(Cl)c2)=C1Nc1ccc(O)c(Cl)c1: criterion not met
- CCn1c(-c2nonc2N)nc2cnc(Oc3cccc(NC(=O)c4ccc(OCCN5CCOCC5)cc4)c3)cc21: criterion not met
- Cn1cc(C=C2C(=O)Nc3cccnc32)c2ccccc21: criterion met
- CNC(=O)c1cncc(/C=C/c2c(Cl)cccc2Cl)c1: criterion met
- CCn1c(-c2nonc2N)nc2cncc(C(=O)N3CCNCC3)c21: criterion met
- COC(=O)Nc1nc2cc(Oc3ccc(NC(=O)Nc4cccc(C(=O)O)c4)cc3)ccc2[nH]1: criterion not met
